- ASSAY TEXT: folding stability dG unfold from trypsin proteolysis; higher = more stable
Readings of folding stability dG unfold for the listed sequences
Your answer is read as kcal/mol, so omit the unit and give the number.

>>> data_value("SAGGSAGGLEIAKELGFEKIEIEEVKENRVVLKLKDKNGKEYKIEFEFDPETGEIKILKIEPLPSAGGSAGG [r6_526_TrMRF]")
3.1
>>> data_value("SAGGSAGGIEITEISRSEELLKLDVPEDTLVLKVKHPDGKEIEVTFPANIPIEEAKEKAKEFVESAGGSAGG [r6_986_TrMRF]")
-0.248
>>> data_value("SAGGSAGGSAGGSPPGQEILIQIKIEFTFPIKKQTDGKPQWHPITISFTAAIPIKVDPNSAGGSAGGSAGGS [r4_271_TrROS]")
3.22

Lab note: next sequence to report on.
# input Please look up its folding stability dG unfold: SAGGGPSMTITVTVSSSELTSGSGPGPLTPEDVAKRLEAELPPGNVTVTVVEVDPATGEVTVRIEVESAGGS [r16_284_JUSTAS]
# output 1.17
